target: GABAA-receptors (α1-GFP + β2 + γ2Long) expressed in CHO cells (Homo sapiens, UniProt P14867+P47870); construct: expressed in transfected cells; host or cells: CHO-K1 (ATCC), transient transfection with Lipofectamine 2000; experiment: Whole-cell patch-clamp recordings with fast perfusion on CHO cells transiently expressing GABAA-receptors; assay type: cell-based; conditions: whole-cell currents, mean ± error over x tested cells; read-out: EC50, mean
Sequence (P14867 28-456): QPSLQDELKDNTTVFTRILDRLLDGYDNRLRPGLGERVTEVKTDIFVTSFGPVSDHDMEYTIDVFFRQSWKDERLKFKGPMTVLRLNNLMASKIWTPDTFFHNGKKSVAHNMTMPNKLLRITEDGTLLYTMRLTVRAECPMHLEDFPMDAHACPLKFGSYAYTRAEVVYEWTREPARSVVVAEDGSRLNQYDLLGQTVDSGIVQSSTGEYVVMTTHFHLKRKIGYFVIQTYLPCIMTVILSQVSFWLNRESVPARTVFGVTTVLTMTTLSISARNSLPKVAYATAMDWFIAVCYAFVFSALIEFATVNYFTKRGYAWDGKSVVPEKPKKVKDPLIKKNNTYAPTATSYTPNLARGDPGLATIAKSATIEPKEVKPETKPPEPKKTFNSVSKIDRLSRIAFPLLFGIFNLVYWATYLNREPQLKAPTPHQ
Sequence (P47870 25-512 limits assumed): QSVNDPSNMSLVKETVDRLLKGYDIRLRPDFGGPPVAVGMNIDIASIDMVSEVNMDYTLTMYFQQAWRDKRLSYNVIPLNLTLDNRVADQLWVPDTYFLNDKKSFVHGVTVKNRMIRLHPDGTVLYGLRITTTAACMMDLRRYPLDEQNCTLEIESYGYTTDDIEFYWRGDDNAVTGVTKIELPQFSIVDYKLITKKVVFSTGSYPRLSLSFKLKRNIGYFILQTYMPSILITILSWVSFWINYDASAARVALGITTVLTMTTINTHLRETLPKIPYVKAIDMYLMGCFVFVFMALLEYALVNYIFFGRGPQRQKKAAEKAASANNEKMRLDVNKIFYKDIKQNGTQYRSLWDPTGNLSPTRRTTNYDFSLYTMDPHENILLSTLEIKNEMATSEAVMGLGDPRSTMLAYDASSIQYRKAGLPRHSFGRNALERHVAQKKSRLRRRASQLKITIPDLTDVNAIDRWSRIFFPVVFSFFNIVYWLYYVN
Sequence (P18507 40-475 partner): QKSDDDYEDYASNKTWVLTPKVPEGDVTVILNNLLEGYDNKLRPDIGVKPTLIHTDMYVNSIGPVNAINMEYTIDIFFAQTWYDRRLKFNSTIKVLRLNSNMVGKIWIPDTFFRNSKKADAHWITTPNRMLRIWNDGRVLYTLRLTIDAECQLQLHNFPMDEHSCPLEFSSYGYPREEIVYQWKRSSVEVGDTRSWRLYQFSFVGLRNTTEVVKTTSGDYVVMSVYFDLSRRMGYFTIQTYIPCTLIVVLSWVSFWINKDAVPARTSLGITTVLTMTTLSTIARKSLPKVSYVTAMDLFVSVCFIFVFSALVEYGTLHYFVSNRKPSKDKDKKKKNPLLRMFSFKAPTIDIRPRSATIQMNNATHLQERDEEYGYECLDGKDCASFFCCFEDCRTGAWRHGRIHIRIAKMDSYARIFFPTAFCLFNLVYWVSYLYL
pEC50: −log10 of the molar value.
# maps each entry to its pEC50

| COMPOUND | pEC50 |
| --- | --- |
| NCCCCNC(=O)CCCN [7c] | 2.76 |
| Cl.Cl.NCCCNC(=O)CCCN [7b] | 2.97 |
| Cl.Cl.NCCCCCCNC(=O)CCCN [7d] | 2.28 |
